- test.target: furin, P09958;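 also: purified furin at 1:10 enzyme:substrate in 50 mM HEPES pH 7.5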
- Sequence (P09958 whole entry): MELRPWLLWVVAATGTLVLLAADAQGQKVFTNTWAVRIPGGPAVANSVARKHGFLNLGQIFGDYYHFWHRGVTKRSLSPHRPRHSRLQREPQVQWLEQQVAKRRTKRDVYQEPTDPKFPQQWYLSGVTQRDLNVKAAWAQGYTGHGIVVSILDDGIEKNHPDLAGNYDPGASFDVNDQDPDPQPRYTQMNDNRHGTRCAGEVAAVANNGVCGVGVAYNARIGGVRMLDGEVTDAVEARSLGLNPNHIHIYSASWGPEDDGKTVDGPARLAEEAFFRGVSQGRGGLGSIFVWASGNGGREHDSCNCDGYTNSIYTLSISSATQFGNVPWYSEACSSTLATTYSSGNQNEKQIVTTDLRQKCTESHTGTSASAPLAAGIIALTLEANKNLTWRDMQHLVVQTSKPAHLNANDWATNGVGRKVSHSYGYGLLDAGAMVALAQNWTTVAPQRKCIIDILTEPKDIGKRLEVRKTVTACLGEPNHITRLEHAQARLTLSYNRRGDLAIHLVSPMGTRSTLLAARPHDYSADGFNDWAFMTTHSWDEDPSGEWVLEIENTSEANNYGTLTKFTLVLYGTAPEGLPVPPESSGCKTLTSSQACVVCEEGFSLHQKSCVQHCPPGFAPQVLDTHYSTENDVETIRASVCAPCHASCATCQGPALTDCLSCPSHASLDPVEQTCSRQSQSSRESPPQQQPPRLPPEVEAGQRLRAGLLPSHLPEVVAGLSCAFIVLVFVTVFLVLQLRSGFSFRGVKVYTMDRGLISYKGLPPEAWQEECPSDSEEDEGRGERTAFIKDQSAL
- experiment.summary: furin cleavage Z-score vs untreated control; higher = more cleavage, active = 3.5 or more, inactive = 1 or less, 8 variable residues between constant flanks
- run.parameters: 30 min
Some of the results follow. The true hit rate is not given.
The categories you may choose from are active, inactive

Recorded results for 4 sequences are shown here.
>  <biosequence>
CALGLLQTASAGNASASA [HC1027]

>  <assigned.class>
inactive

$$$$
>  <biosequence>
CAMKARPEKSAGNASASA [FS-1139]

>  <assigned.class>
inactive

$$$$
>  <biosequence>
CARTKRYFAKAGNASASA [FS-1976]

>  <assigned.class>
active

$$$$
>  <biosequence>
CAFVVTSTWVAGNASASA [HC2147]

>  <assigned.class>
inactive

$$$$

## Task # lookup: test call for CAVKNGTMRIAGNASASA [HC1180]
## Result inactive

## Task # lookup: test call for CANNSREKKAAGNASASA [FS-1378]
## Result inactive

## Task # lookup: test call for CAIAAAGQLDAGNASASA [HC1640]
## Result inactive

## Task # lookup: test call for CADIPRYKRMAGNASASA [FS-1189]
## Result active

## Task # lookup: test call for CATLSRKKRAAGNASASA [FS-567]
## Result active

## Task # lookup: test call for CAMFECSQHLAGNASASA [HC1687]
## Result inactive
